Origin of the recorded values: patent US9688764B2

- target.of.assay: T1, hPRLR.mFc (soluble dimeric human PRLR) (Homo sapiens, UniProt P16471)
- T1 construct: dimeric (hPRLR.mFc)
- procedure.summary: Surface plasmon resonance (Biacore T200), mAb-capture format
- Type: binding
- condition.description: 37° C., antibody-capture format, analyte hPRLR.mFc
- Procedure: Antibodies, expressed as human IgG1 Fc “[…]” designations), were captured onto an anti-human Fc sensor surface (mAb-capture format), and soluble monomeric (hPRLR.mmh; SEQ ID NO:401, or macaca fascicularis (mf) PRLR.mmh; SEQ ID NO:403) or dimeric (hPRLR.mFc; SEQ ID NO:402) PRLR protein was injected over the sensor surface. Measurements were conducted on a T200 Biacore instrument. […]
# Kd per record follows
Just the number in nM, nothing appended.

Below are worked cases with known answers.
>>> measured_value("H1H6797P: anti-PRLR antibody, human IgG1 Fc; HCVR/LCVR SEQ ID NOs 178/186 (antibody, V domains shown, human IgG1 Fc) VH: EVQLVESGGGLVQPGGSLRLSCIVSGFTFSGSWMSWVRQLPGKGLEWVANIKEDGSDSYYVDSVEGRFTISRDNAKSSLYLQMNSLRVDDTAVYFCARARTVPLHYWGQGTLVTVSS VL: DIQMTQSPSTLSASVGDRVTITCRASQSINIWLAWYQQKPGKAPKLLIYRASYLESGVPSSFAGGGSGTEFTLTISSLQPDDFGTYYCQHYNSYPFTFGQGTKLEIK")
0.0691
>>> measured_value("H1H6967N: human IgG1 Fc form of H2M6967N; anti-PRLR; HCVR/LCVR SEQ ID NOs 354/362 (antibody, V domains shown, human IgG1 Fc) VH: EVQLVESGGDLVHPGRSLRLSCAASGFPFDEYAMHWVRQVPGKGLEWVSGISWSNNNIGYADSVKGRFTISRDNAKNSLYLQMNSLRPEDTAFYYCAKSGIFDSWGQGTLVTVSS VL: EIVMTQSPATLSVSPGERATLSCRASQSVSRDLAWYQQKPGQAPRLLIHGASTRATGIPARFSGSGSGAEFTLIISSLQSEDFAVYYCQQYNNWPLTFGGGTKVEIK")
0.107
>>> measured_value("H1H6975N: human IgG1 Fc form of H2M6975N; anti-PRLR; HCVR/LCVR SEQ ID NOs 370/378 (antibody, V domains shown, human IgG1 Fc) VH: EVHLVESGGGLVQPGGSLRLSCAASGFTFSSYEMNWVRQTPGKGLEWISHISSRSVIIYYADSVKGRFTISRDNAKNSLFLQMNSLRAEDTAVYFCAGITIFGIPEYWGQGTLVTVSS VL: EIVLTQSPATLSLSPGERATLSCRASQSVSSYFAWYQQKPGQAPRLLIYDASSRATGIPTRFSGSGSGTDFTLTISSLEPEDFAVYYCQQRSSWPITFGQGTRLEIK")
0.184

# Kd (molecule: H1H6958N2: human IgG1 Fc form of H2M6958N2; anti-PRLR, receptor blocking; HCVR/LCVR SEQ ID NOs 290/298 (antibody, V domains shown, human IgG1 Fc) VH: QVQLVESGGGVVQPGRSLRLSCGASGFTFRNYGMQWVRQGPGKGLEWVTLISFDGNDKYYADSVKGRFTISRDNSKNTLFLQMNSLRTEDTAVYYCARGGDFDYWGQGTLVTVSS VL: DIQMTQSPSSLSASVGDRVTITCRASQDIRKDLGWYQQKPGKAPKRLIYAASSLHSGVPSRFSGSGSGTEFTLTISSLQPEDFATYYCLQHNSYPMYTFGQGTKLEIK ) is 0.167

# Kd (molecule: H1H6800P: anti-PRLR antibody, human IgG1 Fc; HCVR/LCVR SEQ ID NOs 194/202 (antibody, V domains shown, human IgG1 Fc) VH: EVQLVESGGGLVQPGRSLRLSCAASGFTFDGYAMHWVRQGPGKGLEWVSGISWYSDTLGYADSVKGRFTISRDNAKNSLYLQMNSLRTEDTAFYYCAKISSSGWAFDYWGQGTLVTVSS VL: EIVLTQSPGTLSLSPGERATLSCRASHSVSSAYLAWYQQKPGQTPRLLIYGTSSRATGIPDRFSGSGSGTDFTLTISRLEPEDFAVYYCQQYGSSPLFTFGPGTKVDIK ) is 0.229

# Kd (molecule: H1H6781P: anti-PRLR antibody, human IgG1 Fc; HCVR/LCVR SEQ ID NOs 50/58 (antibody, V domains shown, human IgG1 Fc) VH: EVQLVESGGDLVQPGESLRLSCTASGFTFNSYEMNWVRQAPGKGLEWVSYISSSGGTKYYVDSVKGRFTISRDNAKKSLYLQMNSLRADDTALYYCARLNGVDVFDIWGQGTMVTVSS VL: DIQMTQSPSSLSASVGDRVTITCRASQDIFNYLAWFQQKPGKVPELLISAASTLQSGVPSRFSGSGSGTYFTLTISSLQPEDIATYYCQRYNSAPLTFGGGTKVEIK ) is 0.226
